In this section we review reported IC50 values for a set of compounds.
molecular target: Recombinant human Bcl-2 protein (Homo sapiens (Human)); assay: Bcl-2 TR-FRET Assay; type: binding; conditions: Bcl-2 wild type, TR-FRET; read-out: Biochemical assay (IC50, nM) Bcl-2 WT
Sequence (P10415 whole entry): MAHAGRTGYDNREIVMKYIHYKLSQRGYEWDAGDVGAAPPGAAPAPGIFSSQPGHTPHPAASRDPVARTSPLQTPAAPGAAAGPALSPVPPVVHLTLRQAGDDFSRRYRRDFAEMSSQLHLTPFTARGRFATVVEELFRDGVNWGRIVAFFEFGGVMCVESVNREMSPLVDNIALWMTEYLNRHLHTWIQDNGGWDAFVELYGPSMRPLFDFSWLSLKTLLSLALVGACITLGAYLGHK
Phrase the answer as number then unit, nothing more needed.

{"compound": "CC(C)c1ccccc1C1CN(C(C)c2ccccc2)CCN1C1CC2(CCN(c3ccc(C(=O)NS(=O)(=O)c4ccc(NC[C@H]5CC[C@](C)(O)CC5)c([N+](=O)[O-])c4)c(Oc4cnc5[nH]ccc5c4)c3)CC2)C1 (single isomer, unassigned) [Example 24b]", "IC50": "0.24 nM"}
{"compound": "CC(C)c1ccccc1[C@@H]1CN(C2CC2)CCN1C1CC2(CCN(c3ccc(C(=O)NS(=O)(=O)c4ccc(NC[C@H]5CC[C@](C)(O)CC5)c([N+](=O)[O-])c4)c(Oc4cnc5[nH]ccc5c4)c3)CC2)C1 (single isomer, unassigned) [Example 4]", "IC50": "0.045 nM"}
{"compound": "COc1ccc(CN2CCN(C3CC4(CCN(c5ccc(C(=O)NS(=O)(=O)c6ccc(NC[C@H]7CC[C@](C)(O)CC7)c([N+](=O)[O-])c6)c(Oc6cnc7[nH]ccc7c6)c5)CC4)C3)[C@@H](c3ccccc3C(C)C)C2)cc1 [Example 19b]", "IC50": "0.16 nM"}
{"compound": "COc1cc(CN2CCN(C3CC4(C3)CN(c3ccc(C(=O)NS(=O)(=O)c5ccc(NC[C@H]6CC[C@](C)(O)CC6)c([N+](=O)[O-])c5)c(Oc5cnc6[nH]cc(F)c6c5)c3)C4)[C@H](c3ccccc3C(C)C)C2)cc2c1OCC2(C)C [Example 295]", "IC50": "0.19 nM"}
{"compound": "COc1cccc(CN2CCN(C3CC4(CCN(c5ccc(C(=O)NS(=O)(=O)c6ccc(NC[C@H]7CC[C@](C)(O)CC7)c([N+](=O)[O-])c6)c(Oc6cnc7[nH]ccc7c6)c5)CC4)C3)C(c3ccccc3C(C)C)C2)c1 (stereo partly shown) [Example 44]", "IC50": "0.3 nM"}
{"compound": "CC(C)c1ccccc1[C@@H]1CN(Cc2ccc(F)c(F)c2)CCN1C1CC2(C1)CN(c1ccc(C(=O)NS(=O)(=O)c3ccc(NC[C@H]4CC[C@](C)(O)CC4)c([N+](=O)[O-])c3)c(Oc3cnc4[nH]cc(F)c4c3)c1)C2 [Example 229]", "IC50": "0.38 nM"}
{"compound": "COc1ccc(CN2CCN(C3CC4(CCN(c5ccc(C(=O)NS(=O)(=O)c6ccc(NCC7CCOCC7)c([N+](=O)[O-])c6)c(Oc6cnc7[nH]cc(F)c7c6)c5)CC4)C3)[C@H](c3ccccc3C(C)C)C2)cc1OC [Example 191]", "IC50": "0.061 nM"}
{"compound": "COc1cc(CN2CCN(C3CC4(C3)CN(c3ccc(C(=O)NS(=O)(=O)c5ccc(NC[C@H]6CC[C@](C)(O)CC6)c([N+](=O)[O-])c5)c(Oc5cnc6[nH]ccc6c5)c3)C4)[C@H](c3ccccc3C(C)C)C2)ccc1C1CCC1 [Example 342]", "IC50": "0.97 nM"}
{"compound": "COc1ccc(CN2CCN(C3CC4(CCN(c5ccc(C(=O)NS(=O)(=O)c6ccc(NC[C@H]7CC[C@](C)(O)CC7)c([N+](=O)[O-])c6)c(Oc6cnc7[nH]ccc7c6)c5)CC4)C3)C(c3ccccc3C(C)C)C2)cc1C(C)=O (stereo partly shown) [Example 212]", "IC50": "0.13 nM"}
{"compound": "CC(C)c1ccccc1[C@@H]1CN(Cc2ccc3c(c2)OCC3(C)C)CCN1C1CC2(C1)CN(c1ccc(C(=O)NS(=O)(=O)c3ccc(NC[C@H]4CC[C@](C)(O)CC4)c([N+](=O)[O-])c3)c(Oc3cnc4[nH]cc(F)c4c3)c1)C2 [Example 311]", "IC50": "0.43 nM"}

Asked: Requested field: IC50. Item: CNc1ccc(CN2CCN(C3CC4(C3)CN(c3ccc(C(=O)NS(=O)(=O)c5ccc(NC[C@H]6CC[C@](C)(O)CC6)c([N+](=O)[O-])c5)c(Oc5cnc6[nH]cc(F)c6c5)c3)C4)[C@H](c3ccccc3C(C)C)C2)cc1OC [Example 358]
Given back: 0.1 nM

Asked: Requested field: IC50. Item: CC(C)c1ccccc1C1CN(C2CCOCC2)CCN1C1CC2(CCN(c3ccc(C(=O)NS(=O)(=O)c4ccc(NC[C@H]5CC[C@](C)(O)CC5)c([N+](=O)[O-])c4)c(Oc4cnc5[nH]ccc5c4)c3)CC2)C1 (stereo partly shown) [Example 10]
Given back: 0.012 nM

Asked: Requested field: IC50. Item: COc1cc(CN2CCN(C3CC4(C3)CN(c3ccc(C(=O)NS(=O)(=O)c5ccc(NC[C@H]6CC[C@](C)(O)CC6)c([N+](=O)[O-])c5)c(Oc5cnc6[nH]ccc6c5)c3)C4)[C@H](c3ccccc3C(C)C)C2)cc2c1OC(C)(C)C=C2 [Example 329]
Given back: 0.15 nM

Asked: Requested field: IC50. Item: COc1ccc(CN2CCN(C3CC4(C3)CN(c3ccc(C(=O)NS(=O)(=O)c5ccc(NC[C@H]6CC[C@](C)(O)CC6)c([N+](=O)[O-])c5)c(Oc5cnc6[nH]ccc6c5)c3)C4)[C@H](c3ccccc3C(C)C)C2)cn1 [Example 254]
Given back: 0.017 nM

Asked: Requested field: IC50. Item: C#Cc1ccc(CN2CCN(C3CC4(CCN(c5ccc(C(=O)NS(=O)(=O)c6ccc(NC[C@H]7CC[C@](C)(O)CC7)c([N+](=O)[O-])c6)c(Oc6cnc7[nH]ccc7c6)c5)CC4)C3)C(c3ccccc3C(C)C)C2)cc1OC (stereo partly shown) [Example 162]
Given back: 0.38 nM

Asked: Requested field: IC50. Item: COc1ccc(CN2CCN(C3CC4(CCN(c5ccc(C(=O)NS(=O)(=O)c6ccc(NC[C@H]7CC[C@](C)(O)CC7)c([N+](=O)[O-])c6)c(Oc6cnc7[nH]ccc7c6)c5)CC4)C3)C(c3ccccc3C(C)C)C2)cc1Cl (stereo partly shown) [Example 128]
Given back: 0.63 nM
